Task for the reader: assign each of the following molecules its reported IC50.
experiment: Antagonist activity against human CCR5 assessed as inhibition of HIV1 gp120-induced cell-cell fusion between human HeLa P4/R5 cells and CHO-tat10 cells expressing HIV-1JRFL viral envolop protein after 20 hrs by beta-galactosidase reporter gene assay
Numbers only, in nM.

Worked cases, answers included:
[[record]]
molecule = "Cc1ccncc1CN(c1ccc(N2CCOCC2)cc1)C1CCN([C@H](C)CCNC(=O)c2c(C)cc(Cl)nc2C)CC1"
val = 1590

[[record]]
molecule = "CC(CCNC(=O)c1c(Cl)cncc1Cl)N1CCC(N(Cc2ccccc2)c2ccc(OC(F)(F)F)cc2)CC1 (stereo not drawn)"
val = 26

[[record]]
molecule = "CC(CCNC(=O)c1c(Cl)cncc1Cl)N1CCC(N(Cc2cccc(C#N)c2)c2ccc(C(F)(F)F)cc2)CC1 (stereo not drawn)"
val = 3

[[record]]
molecule = "COc1ccc(N(Cc2cnccc2C)C2CCN([C@H](C)CCNC(=O)c3c(C)ccnc3Cl)CC2)cc1"
val = 0.7

[[record]]
molecule = "COc1ccc(N(Cc2cnccc2C)C2CCN([C@H](C)CCNC(=O)c3cnc(Cl)cc3C)CC2)cc1"
val = 12.3

[[record]]
molecule = "CC(CCNC(=O)c1c(Cl)cncc1Cl)N1CCC(N(Cc2cccc(Cl)c2)c2ccc(Br)cc2)CC1 (stereo not drawn)"
val = 30

[[record]]
molecule = "COc1ccc(N(Cc2cccc(C#N)c2)C2CCN(C(C)CCNC(=O)c3c(Cl)cncc3Cl)CC2)cc1 (stereo not drawn)"
val = 2

[[record]]
molecule = "CC(CCNC(=O)c1c(Cl)cncc1Cl)N1CCC(N(Cc2cccc(C#N)c2)c2ccc(C#N)cc2)CC1 (stereo not drawn)"
val = 12


# batch size: 3; output IC50 per entry
1. COc1ccc(N(Cc2cccnc2)C2CCN([C@H](C)CCNC(=O)c3c(C)cc(Cl)nc3C)CC2)cc1
2. COCCOc1ccc(N(Cc2cnccc2C)C2CCN([C@H](C)CCNC(=O)c3c(C)cc(Cl)nc3C)CC2)cc1
3. COc1ccc(N(Cc2cccc(C#N)n2)C2CCN([C@H](C)CCNC(=O)c3c(C)cc(F)nc3C)CC2)cc1

Reply:
[1.5, 0.6, 0.7]

Return reported IC50 values for all items listed beneath this line.
1. CC(CCNC(=O)c1c(Cl)cncc1Cl)N1CCC(N(Cc2ccccc2)c2ccc(C(=O)N(C)C)cc2)CC1 (stereo not drawn)
2. CC(CCNC(=O)c1c(Cl)cncc1Cl)N1CCC(N(Cc2cccc(C#N)c2)c2ccc(OC(F)(F)F)cc2)CC1 (stereo not drawn)

Reply:
116
3

Hi, could you look up IC50 for each item in my list?
1. COc1ccc(N(Cc2ccccc2)C2CCN(C(C)CCNC(=O)c3c(Cl)cncc3Cl)CC2)cc1 (stereo not drawn)
2. CC(CCNC(=O)c1c(Cl)cncc1Cl)N1CCC(N(Cc2ccccc2)c2ccc(C(F)(F)F)cc2)CC1 (stereo not drawn)

Reply:
1. 50
2. 34

Give one value of IC50 per listed molecule.
1. COc1ccc(N(Cc2cccnc2)C2CCN([C@H](C)CCNC(=O)c3c(C)cc(F)nc3C)CC2)cc1
2. CC(CCNC(=O)c1c(Cl)cncc1Cl)N1CCC(N(Cc2ccccc2)c2ccc(Oc3ccc(C(=O)O)cc3)cc2)CC1 (stereo not drawn)
3. CC(CCNC(=O)c1c(Cl)cncc1Cl)N1CCC(N(Cc2cccc(C#N)c2)c2ccc(Br)cc2)CC1 (stereo not drawn)
4. COc1ccc(N(Cc2cnccc2C)C2CCN([C@H](C)CCNC(=O)c3c(C)ccnc3C)CC2)cc1
5. COc1ccc(N(Cc2cnccc2C)C2CCN([C@H](C)CCNC(=O)c3c(C)cncc3C)CC2)cc1

Reply:
1.6
11
8
2.4
7
